Attribution: paper PMC3804772

- Test system: MCF-7 cells
- EXPERIMENT_NOTES: Cell cycle analysis by flow cytometry (propidium iodide)
- Type: cell-based, human
- RUN_PARAMETERS: MCF-7, 25 µM, 24 hours
REPORTED_METRIC: Cell cycle parameters % Sub-G1, 24 hours (%)
Write the value in % as a bare number.

Example compounds with recorded Cell cycle parameters % Sub-G1, 24 hours:
RECORD_SMILES: COc1ccc2c(c1OC)C(=O)O[C@@H]2[C@H]1c2c(cc3c(c2OC)OCO3)CCN1Cc1ccc([N+](=O)[O-])cc1
Cell cycle parameters % Sub-G1, 24 hours, %: 8.08

RECORD_SMILES: COc1ccc2c(c1OC)C(=O)O[C@@H]2[C@H]1c2c(cc3c(c2OC)OCO3)CCN1Cc1ccc(Br)cc1
Cell cycle parameters % Sub-G1, 24 hours, %: 7.37

RECORD_SMILES: COc1ccc2c(c1OC)C(=O)O[C@@H]2[C@H]1c2c(cc3c(c2OC)OCO3)CCN1Cc1ccccc1
Cell cycle parameters % Sub-G1, 24 hours, %: 8.12

RECORD_SMILES: COc1ccc2c(c1OC)C(=O)O[C@@H]2[C@H]1c2c(cc3c(c2OC)OCO3)CCN1Cc1cccc(Br)c1
Cell cycle parameters % Sub-G1, 24 hours, %: 9.47

# next compound below
IN: Record request: Cell cycle parameters % Sub-G1, 24 hours value, item COc1ccc2c(c1OC)C(=O)O[C@@H]2[C@H]1c2c(cc3c(c2OC)OCO3)CCN1CC(C)=O
OUT: 11.37
